parameter.measured: melting point

// worked examples, melting point included
Cc1c2c(c(C)n1-c1cccc(Cl)c1)C(=O)N(CC(O)CN1CCN(S(C)(=O)=O)CC1)C2=O (stereo not shown)    119 to 122 °C
Cc1c2c(c(C)n1-c1ccccc1)C(=O)N(CC(O)CN1CCN(c3ccc(F)cc3F)CC1)C2=O (stereo not shown)    143 to 145 °C
CCCCn1c(C)c2c(c1C)C(=O)N(CC(O)CN1CCN(S(C)(=O)=O)CC1)C2=O (stereo not shown)    139 to 141 °C

Next up:
Just so you know, measured melting point for CCCCn1c(C)c2c(c1C)C(=O)N(CC(O)CN1CCN(c3ccc(Br)cc3)CC1)C2=O (stereo not shown) came out at 180 to 182 °C

Provenance of the data: paper PMC10303166
